# protocol details: Inhibition of COX1-mediated platelet aggregation
pIC50: −log10 of the molar value.
readout: pIC50

[
  {
    "compound": "COc1ccc2c(c1)c(CC(=O)O)c(C)n2-c1ccnc2cc(Cl)ccc12",
    "readout": "pIC50",
    "numeric readout": 7.40
  }
]
